Source listed as patent US20110059064A1.

- measurementTarget: human voltage-gated potassium channel Kv1.3, expressed endogenously in human peripheral blood T cells (human), P22001
- Sequence (P22001 whole entry): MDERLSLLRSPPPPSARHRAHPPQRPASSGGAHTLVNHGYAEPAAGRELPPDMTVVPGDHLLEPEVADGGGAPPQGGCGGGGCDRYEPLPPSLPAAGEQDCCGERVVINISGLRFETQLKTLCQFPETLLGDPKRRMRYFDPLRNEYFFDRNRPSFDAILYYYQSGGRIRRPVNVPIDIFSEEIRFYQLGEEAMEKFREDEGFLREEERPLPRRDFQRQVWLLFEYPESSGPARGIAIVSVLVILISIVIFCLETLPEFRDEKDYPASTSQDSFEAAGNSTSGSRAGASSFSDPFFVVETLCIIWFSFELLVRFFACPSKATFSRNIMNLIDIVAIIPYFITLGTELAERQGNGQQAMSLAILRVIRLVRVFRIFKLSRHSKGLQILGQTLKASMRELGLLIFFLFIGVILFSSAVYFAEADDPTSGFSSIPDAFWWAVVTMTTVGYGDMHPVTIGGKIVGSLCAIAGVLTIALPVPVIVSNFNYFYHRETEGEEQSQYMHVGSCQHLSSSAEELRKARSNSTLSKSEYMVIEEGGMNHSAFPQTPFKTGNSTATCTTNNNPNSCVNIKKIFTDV
reportedProperty: Kd (pM)
Return type: number; implicit unit pM.

Form: binder = AAAISCVGSPECPPKCRAQGCKNGKCMNRKCKCYYC (modifications not checked) [Vm24 (native peptide purified from the venom of Vaejovis mexicanus smithi)] ; Kd = 2.9
